Test system: A549/ATCC NSCLC
protocol.text: NCI-60 one-dose screen, 48 h (100 = growth as untreated, 0 = no growth, -100 = all killed)
condition.notes: 10 µM unless noted
About 83,000 compounds went through this panel and 20% of them were active in at least one assay; those are over-represented in the sample as a whole.
Listed compounds paired with reported growth
Kindly answer with a numeric value in %, unit omitted.

These solved cases illustrate the format of a correct answer.
CCOC(=O)c1c(NC(=O)c2cccc(C(F)(F)F)c2)sc2c1CCC(=O)C2 : 28.9
C#C[C@]1(O)CC[C@H]2[C@@H]3CC=C4c5sc(Nc6cc(C)cc(C)c6)nc5CC[C@]4(C)[C@H]3CC[C@@]21C : 21.1
O=C(O)c1ccc(-n2c(=O)n(-c3cccc(C(F)(F)F)c3)c(=O)c3cc(-c4ccc(F)cc4F)ccc32)cc1 : 10

Now turn to the next compound.
Quick note, growth for COc1ccc(/C=N\NC(=O)c2cnn(CC(O)c3ccccc3)c2N)cc1OCc1ccc(Cl)cc1 (centres undefined) landed at 62.9

----------
System: DU-145 prostate
protocol.text: NCI-60 one-dose screen, 48 h (100 = growth as untreated, 0 = no growth, -100 = all killed)
condition.notes: 10 µM unless noted
About 83,000 compounds went through this panel and 20% of them were active in at least one assay; those are over-represented in the sample as a whole.
measured.quantity: growth (%)
Kindly answer with a numeric value in %, unit omitted.

These solved cases illustrate the format of a correct answer.
Cc1ccc(Nc2nc(SC(C)C)nc(-c3ccccc3)c2C#N)cc1 : 104
C/C(=N\NC(=O)Nc1ccccc1)c1nnn(-c2ccc([N+](=O)[O-])cc2)c1C : 105
CC(=O)/C(N=Nc1ccc2oc(=O)ccc2c1)=C(\C)O : 48.5
Brc1cccc(-c2cc(-c3cnc4c(c3)OCCO4)n[nH]2)c1 : 70.4
CC(C)NC(=O)c1cc(-c2ccc(NC(=O)Nc3ccc(F)c(C(F)(F)F)c3)cc2)nc2cccnc12 : 100

Quick note, growth for CCOP(=O)(OCC)OC[C@]12CCC(C)(C)C[C@H]1C1=CC[C@@H]3[C@@]4(C)CC[C@H](OP(=O)(OCC)OCC)C(C)(C)[C@@H]4CC[C@@]3(C)[C@]1(C)CC2 landed at 83.1

Quick note, growth for Cc1[nH]c(C(=O)Nc2ccc(C(N)=O)cc2N2CCOC(C)C2)c(Cl)c1Cl (stereo not drawn) landed at 104

Quick note, growth for Cc1[nH]c(C(=O)Nc2ccc(S(=O)(=O)N3CCCCC3)cc2OCCOCCOCCOCCOCCOCCOCCOCCOCCOc2cc(S(=O)(=O)N3CCCCC3)ccc2NC(=O)c2[nH]c(C)c3c2CCCCC3=O)c2c1C(=O)CCCC2 landed at 47.3

----------
Test system: IGROV1 ovarian
protocol.text: NCI-60 one-dose screen, 48 h (100 = growth as untreated, 0 = no growth, -100 = all killed)
condition.notes: 10 µM unless noted
About 83,000 compounds went through this panel and 20% of them were active in at least one assay; those are over-represented in the sample as a whole.
measured.quantity: growth (%)
Kindly answer with a numeric value in %, unit omitted.

These solved cases illustrate the format of a correct answer.
CCOC(=O)c1ccc(NC2=CC(=O)C(C)=C(C)C2=O)cc1 : 79.2
N/C(=N\C(N)=N\c1nc2ccccc2s1)c1ccc(Cl)cc1 : 92
Clc1ccc2[nH]cc(-c3nn4cc(-c5cccnc5)nc4s3)c2c1 : 87.9
CN1CCN(c2ccc(Nc3nc(NCCNS(=O)(=O)c4ccc(Cl)cc4)c4sccc4n3)cc2)CC1 : 92.9
CCN(CC)c1ccc(/C=N/NC(=O)c2ccc(NS(C)(=O)=O)cc2)c(O)c1 : 20.3
COc1cc(-c2nc(-c3ccccc3)[nH]c2-c2ccnc(NCCCNS(=O)(=O)c3cccc(F)c3)n2)ccc1F : -69.7

Quick note, growth for FC(F)(F)c1cc(Br)cc(-c2cc(-c3ccc4c(c3)OCCO4)[nH]n2)c1 landed at 20.8

Quick note, growth for CC(=O)OCCCCN1C=C/C(=C\C(=O)n2ccc3ccccc32)c2ccccc21 landed at 83.3

Quick note, growth for COc1ccccc1/C=C/C(=O)c1nnn(-c2ccc(F)cc2)c1C landed at 45.6

Quick note, growth for CC(Nc1ncnc2ccc(-c3cnc(N)nc3)cc12)c1ccccc1 (stereo not given) landed at -13.4

----------
Tested on: SW-620 colon
protocol.text: NCI-60 one-dose screen, 48 h (100 = growth as untreated, 0 = no growth, -100 = all killed)
condition.notes: 10 µM unless noted
The panel holds about 83,000 compounds, 20% with a hit somewhere; the sample as a whole holds those more often. The source made the active and inactive calls. Rule for the calls: active = growth percent below 10; inactive = the rest.
Listed molecules paired with reported growth

O=C(Nc1ccc(Cl)c(C(F)(F)F)c1)Nc1ccc2c(ccn2C(=O)c2cccc(F)c2)c1 : 40.9% (inactive)
CN(C)CC(=O)Nc1nc(-c2cccc(NS(=O)(=O)c3cccc4c(N(C)C)cccc34)c2)cs1 : 105% (inactive)
N#C/C(=C\c1ccc(-c2ccc(Cl)c(Cl)c2)o1)C(=O)Nc1ncc(Cc2ccc(Cl)cc2)s1 : 10.8% (inactive)
CN1CCN(Cc2ccc(NC(=O)c3cncc(C#Cc4cnc5ccc(OCC6COC6)nn45)c3)cc2C(F)(F)F)CC1 : -29.8% (active)
C=C1CCc2nc(SCC(=O)O)ccc2N1 : 106% (inactive)

Quick note, growth for C#CCN(C)CCCOc1ccc(NC(=O)CCCCCCCCC(=O)NO)cc1Cl landed at 63.1% (inactive)

Quick note, growth for CN1CCN(c2ccc(Nc3nc(NCCNC(=O)c4ccc(F)cc4)c4sccc4n3)cc2)CC1 landed at 75.2% (inactive)

Quick note, growth for O=C(CCCCCCNC(=O)C(O)(O)C(F)(F)F)Nc1ccc(Cl)cc1 landed at 5.2% (active)

Quick note, growth for O=C1[C@H]2Cc3c([nH]c4ccccc34)[C@H](c3ccc(Br)cc3)N2C(=O)CN1C1CCN(CC2CCCCC2)CC1 landed at 79.7% (inactive)

----------
Listed molecules paired with reported growth
Tested on: LOX IMVI melanoma
protocol.text: NCI-60 one-dose screen, 48 h (100 = growth as untreated, 0 = no growth, -100 = all killed)
condition.notes: 10 µM unless noted
Procedure: Growth inhibition of the LOX IMVI human tumor cell line is measured as a screen for anti-cancer activity. Cells are grown in 96 well plates and exposed to the test compound for 48 hours. Compounds are tested at a single concentration, which is 10^-5 M for most compounds. The reported endpoint is percent growth (GI% or GIPRCNT), where numbers from 0 - 100% represent growth inhibition, and numbers from -100% - 0 represent cell death. For example, a value of 40 represents 60% growth inhibition. […]
About 83,000 compounds went through this panel and 20% of them were active in at least one assay; those are over-represented in the sample as a whole.
Kindly answer with a numeric value in %, unit omitted.

These solved cases illustrate the format of a correct answer.
CC(=O)OC[C@]12CC[C@@H](C(=O)/C=C/c3cccnc3)[C@@H]1[C@H]1CC[C@@H]3[C@@]4(C)CC[C@H](OC(C)=O)C(C)(C)[C@@H]4CC[C@@]3(C)[C@]1(C)CC2 : -84
C/C(CC1(O)C(=O)Nc2ccccc21)=N\O (configuration not stated) : 90.4
CCCCN1C(=O)/C(=c2\sc3n(c2=O)C2C(NN=3)N(CC)C(=O)N2CC)c2cccc(C)c21 (configuration not stated) : 42.4
CC(=O)N(O)CCCCCNC(=O)CCC(=O)N(O)CCCCCNC(=O)CCC(=O)N(O)CCCCCN(CCCCCCCCCC[P+](c1ccccc1)(c1ccccc1)c1ccccc1)CCCCCCCCCC[P+](c1ccccc1)(c1ccccc1)c1ccccc1 : -15
CCOC(=O)c1cccnc1Nc1ccc(NC(=O)Nc2ccc(Cl)c(C(F)(F)F)c2)cc1 : 22.5

The observed growth for COc1cc(OC)cc(-c2cc(-c3c[nH]c4ccccc34)nc(-c3c[nH]c4ccccc34)c2C#N)c1 when tested with LOX IMVI melanoma stands at 82.7

The observed growth for CSc1ccc(/C(=N/N=C(N)N)c2ccc(Cl)cc2)cc1 when tested with LOX IMVI melanoma stands at -42.5

The observed growth for N#Cc1c(-c2ccc(Br)cc2)cc(-c2c[nH]c3ccccc23)nc1N when tested with LOX IMVI melanoma stands at 28.7

The observed growth for Brc1cccc(-c2cc(-c3cnc4c(c3)OCCO4)n[nH]2)c1 when tested with LOX IMVI melanoma stands at 37.1

The observed growth for Cn1ncc2ncc(-c3ccc4ncc(C#N)c(N5CCc6cc(F)c(Cl)cc65)c4c3)cc21 when tested with LOX IMVI melanoma stands at 19.3

The observed growth for CN1c2ccccc2Sc2cc(/C=N/Nc3ccnc4cc(Cl)ccc34)ccc21 when tested with LOX IMVI melanoma stands at 47.7

----------
Tested on: UO-31 renal
protocol.text: NCI-60 one-dose screen, 48 h (100 = growth as untreated, 0 = no growth, -100 = all killed)
condition.notes: 10 µM unless noted
This is part of a sample that, as a whole, favours compounds with a hit. Of some 83,000 tested, about 20% had one in any assay. Calls of active or inactive are those of the source. The calls were made as follows: active = growth percent below 10; inactive = the rest.
measured.quantity: growth

These solved cases illustrate the format of a correct answer.
CC(=O)Nc1cc(N2CCOCC2)c2nc(NC(=O)c3[nH]c(C)c(Cl)c3Cl)sc2c1 : 57.9% (inactive)
O=C(O)CC1CCN(c2ccc3nnc(Cl)n3n2)CC1 : 81.5% (inactive)
Cc1ccc(CSC2=C(Cl)CN(c3ccc(Cl)cc3)C2=O)cc1 : 78.6% (inactive)
Cc1ccc(C(=O)Nc2ccc(CNCCN3CCNCC3)c(C(F)(F)F)c2)cc1C#Cc1cnc2cccnn12 : 76.7% (inactive)
O=C(CCl)Nc1ccc(NC(=O)c2cc(Cl)ccc2O)c(Cl)c1 : 54.7% (inactive)
C[C@H](Nc1ncnc2ccc(-c3cnc(Cl)c(NS(C)(=O)=O)c3)cc12)c1ccccc1 : -63.5% (active)
COc1ccc2c(c1)C=CC1(O2)Oc2ccc(OC)cc2C=C1C (stereo not given) : 44.9% (inactive)
CCNC(=O)Oc1ccc(/C(=C(/C)c2ccc(OC)cc2)c2ccc(OCCN3CCCCCC3)cc2)cc1 : 0.828% (active)
COCCOc1ccc2ncc(C#Cc3cncc(C(=O)Nc4ccc(CN5CCN(C)CC5)c(C(F)(F)F)c4)c3)n2n1 : 2.58% (active)

Now turn to the next molecule.
The observed growth for Brc1cc(-c2cc(-c3ccc4c(c3)OC=CO4)[nH]n2)cs1 when tested with UO-31 renal stands at 71.2% (inactive)
